# Tested on: Mycobacterium tuberculosis FadD28 fatty-acid-AMP ligase
# assay: inhibitors of FadD28 bisubstrate probe binding, primary screen, biochemical, fluorescence polarization, single point (AID 588549)
# run-conditions: at 12.5 µM
The whole screen tested about 360,000 compounds, of which about 780 (0.22%) were called active. No stated cut-off is given here; in the data, active means inhibition above about 8.5% (passing the limit was not always enough); inconclusive means no clear call, values can overlap the other calls. The sample holds actives, similar compounds and a random draw of the others, so the mix is not that of the screen.
Classes used: active, inactive

molecule: C=C1c2c(Cl)ccc(O)c2C(O)=C2C(=O)[C@]3(O)C(O)=C(C(N)=O)C(=O)[C@@H](N(C)C)[C@@H]3[C@@H](O)C12 (stereo partly specified)
system-name: Mycobacterium tuberculosis FadD28 fatty-acid-AMP ligase
label: active
//
molecule: CCCNC(=O)c1cc(C2CCCCN2C(=O)OC)on1 (stereo unspecified)
system-name: Mycobacterium tuberculosis FadD28 fatty-acid-AMP ligase
label: inactive
//
molecule: COC(=O)C1CC2=C(CC(C)(C)CC2=O)N(c2ccccc2)C1=O (stereo unspecified)
system-name: Mycobacterium tuberculosis FadD28 fatty-acid-AMP ligase
label: inactive
//
molecule: Cn1c(=O)n(CCc2ccccc2)c(=O)c2c1nc1n2CCCN1c1ccccc1
system-name: Mycobacterium tuberculosis FadD28 fatty-acid-AMP ligase
label: inactive
//
molecule: O=c1/c(=C/c2ccc(CNS(=O)(=O)c3ccccc3)o2)sc2n1CCN=2
system-name: Mycobacterium tuberculosis FadD28 fatty-acid-AMP ligase
label: inactive
//
molecule: O=[N+]([O-])c1ccc(C=Nc2ccc(Cl)cc2Cl)s1
system-name: Mycobacterium tuberculosis FadD28 fatty-acid-AMP ligase
label: inactive
//
molecule: CC(C)CC(=O)Nc1nnc(S(=O)(=O)N(C)c2ccc(Cl)cc2)s1
system-name: Mycobacterium tuberculosis FadD28 fatty-acid-AMP ligase
label: active
//
molecule: COc1ccc(C(=O)Nc2ccnn2C2CCN(Cc3ccncc3)CC2)cc1
system-name: Mycobacterium tuberculosis FadD28 fatty-acid-AMP ligase
label: inactive
//
molecule: CCN(CC)C(CNC(=O)CSc1nnnn1-c1cccc(F)c1)c1ccco1 (stereo unspecified)
system-name: Mycobacterium tuberculosis FadD28 fatty-acid-AMP ligase
label: inactive
//
molecule: COc1c(C)cc(C(=O)C2CCCN(S(=O)(=O)c3c(C)noc3C)C2)cc1C (stereo unspecified)
system-name: Mycobacterium tuberculosis FadD28 fatty-acid-AMP ligase
label: inactive
//
molecule: C=CCN(CC=C)CCOc1ccccc1[N+](=O)[O-]
system-name: Mycobacterium tuberculosis FadD28 fatty-acid-AMP ligase
label: inactive
//
molecule: CCn1cc(/C=C(\NC(=O)c2ccc(C)cc2)C(=O)NCCN2CCOCC2)c2ccccc21
system-name: Mycobacterium tuberculosis FadD28 fatty-acid-AMP ligase
label: inactive
//
molecule: CCOC(=O)c1ccccc1N1C(=O)C2Sc3[nH]c(=O)sc3C(/C=C/c3ccccc3)C2C1=O (stereo unspecified)
system-name: Mycobacterium tuberculosis FadD28 fatty-acid-AMP ligase
label: inactive
//
molecule: O=C(CN1C(=O)NC2(CCCC2)C1=O)NCC1CCCO1 (stereo unspecified)
system-name: Mycobacterium tuberculosis FadD28 fatty-acid-AMP ligase
label: inactive
//
molecule: COc1cc(CCC(=O)N2CCN(c3ccccc3Cl)CC2)cc(OC)c1OC
system-name: Mycobacterium tuberculosis FadD28 fatty-acid-AMP ligase
label: active
//
molecule: CCN(CC)S(=O)(=O)c1ccc(N2CC(C(=O)NCc3cccnc3)CC2=O)cc1 (stereo unspecified)
system-name: Mycobacterium tuberculosis FadD28 fatty-acid-AMP ligase
label: inactive
//
molecule: Cc1ccccc1-c1csc(C(O)c2cccc(Cl)c2)n1 (stereo unspecified)
system-name: Mycobacterium tuberculosis FadD28 fatty-acid-AMP ligase
label: inactive
//
molecule: CCn1nnc2cc(C(=O)Nc3ccc(C(=O)OC(C)C)cc3)ccc21
system-name: Mycobacterium tuberculosis FadD28 fatty-acid-AMP ligase
label: inactive
//
molecule: CN(C(=O)CN1C(=O)CCSc2ccc(S(=O)(=O)N3CCCC3)cc21)c1ccccc1
system-name: Mycobacterium tuberculosis FadD28 fatty-acid-AMP ligase
label: inactive
//
molecule: CCC(C)(C)c1ccc(Oc2ccc(NC(=O)COC(=O)C3=COCCO3)cc2)cc1
system-name: Mycobacterium tuberculosis FadD28 fatty-acid-AMP ligase
label: inactive
//
molecule: CS(=O)(=O)N(Cc1ccccc1)c1ccc(C(=O)NN=C2CCCCCC2)cc1
system-name: Mycobacterium tuberculosis FadD28 fatty-acid-AMP ligase
label: inactive
//
molecule: O=C(Cn1ccc([N+](=O)[O-])n1)NCc1cccs1
system-name: Mycobacterium tuberculosis FadD28 fatty-acid-AMP ligase
label: inactive
//
molecule: COc1ccccc1CNC(=O)CSc1nc(=O)n(Cc2ccncc2)c2c1CCC2
system-name: Mycobacterium tuberculosis FadD28 fatty-acid-AMP ligase
label: inactive
//
molecule: N#CCN(C(=O)COC(=O)C1CC2CCCC(C1)C2=O)c1ccccc1 (stereo unspecified)
system-name: Mycobacterium tuberculosis FadD28 fatty-acid-AMP ligase
label: inactive
//
molecule: c1ccc(CCN2CN=C(Nc3nc4ccccc4o3)NC2)cc1
system-name: Mycobacterium tuberculosis FadD28 fatty-acid-AMP ligase
label: inactive
//
molecule: Cc1nnc(CN(C)Cc2cn[nH]c2-c2ccc(-c3ccccc3)cc2)o1
system-name: Mycobacterium tuberculosis FadD28 fatty-acid-AMP ligase
label: inactive
//
molecule: CCC(=O)Nc1nnc(S(=O)(=O)N(CC(C)C)c2ccccc2)s1
system-name: Mycobacterium tuberculosis FadD28 fatty-acid-AMP ligase
label: inactive
//
molecule: CCOC(=O)C(CC)/C(C)=N\NC(=O)c1cccc(C)c1 (stereo unspecified)
system-name: Mycobacterium tuberculosis FadD28 fatty-acid-AMP ligase
label: inactive
//
molecule: CNS(=O)(=O)c1cnccc1N1CCN(c2cccc(C)c2)CC1
system-name: Mycobacterium tuberculosis FadD28 fatty-acid-AMP ligase
label: inactive
//
molecule: COCCNC(=O)CCCn1c(=O)c2ccccc2n(Cc2cccc([N+](=O)[O-])c2)c1=O
system-name: Mycobacterium tuberculosis FadD28 fatty-acid-AMP ligase
label: inactive
//
molecule: CCc1nc2ccc(C(=O)NC3CCN(Cc4ccccc4)CC3)cn2c1N(CC)CCOC
system-name: Mycobacterium tuberculosis FadD28 fatty-acid-AMP ligase
label: inactive
//
molecule: C=CC(=O)OCCOCCOCCOCCOC(=O)C=C
system-name: Mycobacterium tuberculosis FadD28 fatty-acid-AMP ligase
label: inactive
//
molecule: CCOc1ccc(CN(C)C(=O)c2ccc(=O)[nH]c2)cc1
system-name: Mycobacterium tuberculosis FadD28 fatty-acid-AMP ligase
label: inactive
//
molecule: CCCCN=C1N/C(=C\c2ccco2)C(=O)N1c1ccccc1
system-name: Mycobacterium tuberculosis FadD28 fatty-acid-AMP ligase
label: inactive
//
molecule: COC(=O)C1=C(C)N(C(C)c2ccccc2)C(=O)/C1=C\c1ccco1 (stereo unspecified)
system-name: Mycobacterium tuberculosis FadD28 fatty-acid-AMP ligase
label: inactive
//
molecule: COc1cc(CCC(=O)Nc2ccncc2Cl)cc(OC)c1OC
system-name: Mycobacterium tuberculosis FadD28 fatty-acid-AMP ligase
label: inactive
